assay: RAM signaling pathway blockade in yeast – S. cerevisiae, Pdr1DBD-CYC8 efflux-inhibited sensitized strain, primary screen (AID 1298);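 note: 0% = DMSO untreated cells without growth and 100% = 10 µM 1-NA-PP1 full growth; higher means more yeast growth rescued from 5-FOA killing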; conditions: S. cerevisiae cbk1-as DSE1-URA3 strain, 5-FOA growth OD615, 2 d; at 50 µM; hits give high values
Consider the following compounds; for each one, report its RAM network inhibition.
Write it as a number; the unit % goes unstated.

(Q) I have this compound here, CCOC(=O)N1CCN(c2cc(C)nc3nc(C)nn23)CC1 , and I need its recorded RAM network inhibition.
(A) 2.21

(Q) Consider next the compound COC(=O)CSC1=C(C#N)C(c2ccc(C(C)C)cc2)CC(=O)N1 (stereo unspecified) in the same way.
(A) 4.09

(Q) Consider next the compound CCN(CC)C(=O)C1CCN(S(=O)(=O)c2ccc(C3CNC(=O)C3)cc2)CC1 (stereo unspecified) in the same way.
(A) 2.47

(Q) Consider next the compound CCOc1ccccc1N(CC(=O)Nc1ccccc1C(=O)O)S(C)(=O)=O in the same way.
(A) 5.86

(Q) Consider next the compound Cc1cc(C(=O)N2CCN(S(C)(=O)=O)CC2)sc1-c1ccccc1 in the same way.
(A) 6.22

(Q) Consider next the compound N#CCCN1CCN(S(=O)(=O)c2ccc(S(=O)(=O)N3CCCCCC3)cc2)CC1 in the same way.
(A) 11.9

(Q) Consider next the compound CCOC(=O)C1C(=O)CC(C)(O)C(C(=O)OCC)C1c1ccco1 (stereo unspecified) in the same way.
(A) 2.45

(Q) Consider next the compound O=C(NC1=NCCS1)c1csc2ccccc12 in the same way.
(A) 1.26

(Q) Consider next the compound O=C(O)CC1SC(=Nc2ccccc2)N(c2ccccc2)C1=O (stereo unspecified) in the same way.
(A) 2.93

(Q) Consider next the compound Cc1ccccc1NS(=O)(=O)c1cccc(-c2nnc(-c3ccccc3)o2)c1 in the same way.
(A) 4.08

(Q) Consider next the compound COC(=O)C(C)Sc1nnc(Cc2cc(=O)[nH]c(=O)[nH]2)n1-c1ccc(Cl)cc1 (stereo unspecified) in the same way.
(A) 1
